Data export: MIC values recorded with M. kansasii (ATCC 12478).
Hi! Could you send only the number? It should be in µg/mL, unit omitted.

{"columns": ["compound", "MIC [µg/mL]"],
 "data": [
  ["CO[C@H]1/C=C/O[C@@]2(C)Oc3c(C)c(O)c4c(c3C2=O)C2=NC3(CCN(CC(C)C)CC3)NC2=C(NC(=O)/C(C)=C\\C=C\\[C@H](C)[C@H](O)[C@@H](C)[C@@H](O)[C@@H](C)[C@H](OC(=O)CN2CCC(N(C)C)CC2)[C@@H]1C)C4=O", 0.01]
]}

Bench note: what MIC did `CO[C@H]1/C=C/O[C@@]2(C)Oc3c(C)c(O)c4c(c3C2=O)C2=NC3(CCN(CC(C)C)CC3)NC2=C(NC(=O)/C(C)=C\C=C\[C@H](C)[C@H](O)[C@@H](C)[C@@H](O)[C@@H](C)[C@H](OC(=O)CN2CCC(NS(=O)(=O)c3ccccc3)CC2)[C@@H]1C)C4=O` show?
0.01

Quick one: `CO[C@H]1/C=C/O[C@@]2(C)Oc3c(C)c(O)c4c(c3C2=O)C2=NC3(CCN(CC(C)C)CC3)NC2=C(NC(=O)/C(C)=C\C=C\[C@H](C)[C@H](O)[C@@H](C)[C@@H](O)[C@@H](C)[C@H](OC(=O)CNC2CCN(C)CC2)[C@@H]1C)C4=O`
0.02

And for CO[C@H]1/C=C/O[C@@]2(C)Oc3c(C)c(O)c4c(c3C2=O)C2=NC3(CCN(CC(C)C)CC3)NC2=C(NC(=O)/C(C)=C\C=C\[C@H](C)[C@H](O)[C@@H](C)[C@@H](O)[C@@H](C)[C@H](OC(=O)CN2CCC3C(CCCN3Cc3ccccc3)C2)[C@@H]1C)C4=O (stereo partly shown) ?
0.01
